Quantity Name: pIC50
Lab note: report pIC50 as minus log10 of the concentration in molar units, number only.

*Q* Kindly state the measured pIC50 obtained for COc1cc2ncnc(Nc3ccc(F)c(Cl)c3)c2cc1NC(=O)/C=C/CN1CC2CC2C1 (stereo not shown) with HER4: human epidermal growth factor receptor 4 (Homo sapiens, UniProt Q15303).
Sequence (Q15303 26-1308): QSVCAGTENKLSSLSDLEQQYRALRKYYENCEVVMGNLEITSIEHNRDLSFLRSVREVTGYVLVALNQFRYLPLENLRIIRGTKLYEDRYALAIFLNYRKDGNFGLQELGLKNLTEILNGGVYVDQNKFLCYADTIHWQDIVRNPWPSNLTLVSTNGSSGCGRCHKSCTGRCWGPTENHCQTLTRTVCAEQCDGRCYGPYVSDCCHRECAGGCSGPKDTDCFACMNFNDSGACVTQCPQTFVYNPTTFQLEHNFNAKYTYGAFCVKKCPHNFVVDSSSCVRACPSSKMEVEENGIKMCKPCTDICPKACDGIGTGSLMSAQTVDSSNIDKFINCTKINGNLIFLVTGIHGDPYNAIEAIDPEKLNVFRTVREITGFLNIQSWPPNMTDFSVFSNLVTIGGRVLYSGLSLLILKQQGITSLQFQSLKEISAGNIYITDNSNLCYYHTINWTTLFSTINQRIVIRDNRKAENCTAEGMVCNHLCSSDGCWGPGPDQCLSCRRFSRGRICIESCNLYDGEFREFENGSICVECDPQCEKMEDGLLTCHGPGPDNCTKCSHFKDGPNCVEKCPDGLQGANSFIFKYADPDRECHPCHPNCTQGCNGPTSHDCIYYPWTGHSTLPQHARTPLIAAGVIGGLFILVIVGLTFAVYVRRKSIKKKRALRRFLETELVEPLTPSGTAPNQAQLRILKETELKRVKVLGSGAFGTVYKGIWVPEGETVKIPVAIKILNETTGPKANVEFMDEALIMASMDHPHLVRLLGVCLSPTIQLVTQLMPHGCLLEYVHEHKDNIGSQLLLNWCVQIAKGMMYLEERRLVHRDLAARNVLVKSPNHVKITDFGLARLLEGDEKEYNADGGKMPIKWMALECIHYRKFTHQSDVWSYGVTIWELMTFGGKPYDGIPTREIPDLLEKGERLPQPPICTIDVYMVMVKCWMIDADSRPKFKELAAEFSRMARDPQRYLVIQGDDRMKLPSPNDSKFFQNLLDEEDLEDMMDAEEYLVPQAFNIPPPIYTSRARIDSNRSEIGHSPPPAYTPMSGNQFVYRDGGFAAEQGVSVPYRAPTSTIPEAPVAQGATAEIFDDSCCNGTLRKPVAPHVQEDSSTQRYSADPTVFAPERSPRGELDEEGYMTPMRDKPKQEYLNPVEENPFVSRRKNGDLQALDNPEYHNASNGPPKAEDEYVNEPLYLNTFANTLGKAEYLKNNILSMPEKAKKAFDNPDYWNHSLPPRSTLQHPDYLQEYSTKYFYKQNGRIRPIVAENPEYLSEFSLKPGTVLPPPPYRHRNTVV
*A* 8.51

====

Consider the following compounds; for each one, report its IC50.
Give a bare numeral; the unit nM is implied.

*Q* Kindly state the measured IC50 obtained for `COc1cc2ncnc(Nc3ccc(F)c(Cl)c3)c2cc1NC(=O)/C=C/CN1CC2(CCC2)C1` with UniProt P00533.
Sequence (P00533 25-1210): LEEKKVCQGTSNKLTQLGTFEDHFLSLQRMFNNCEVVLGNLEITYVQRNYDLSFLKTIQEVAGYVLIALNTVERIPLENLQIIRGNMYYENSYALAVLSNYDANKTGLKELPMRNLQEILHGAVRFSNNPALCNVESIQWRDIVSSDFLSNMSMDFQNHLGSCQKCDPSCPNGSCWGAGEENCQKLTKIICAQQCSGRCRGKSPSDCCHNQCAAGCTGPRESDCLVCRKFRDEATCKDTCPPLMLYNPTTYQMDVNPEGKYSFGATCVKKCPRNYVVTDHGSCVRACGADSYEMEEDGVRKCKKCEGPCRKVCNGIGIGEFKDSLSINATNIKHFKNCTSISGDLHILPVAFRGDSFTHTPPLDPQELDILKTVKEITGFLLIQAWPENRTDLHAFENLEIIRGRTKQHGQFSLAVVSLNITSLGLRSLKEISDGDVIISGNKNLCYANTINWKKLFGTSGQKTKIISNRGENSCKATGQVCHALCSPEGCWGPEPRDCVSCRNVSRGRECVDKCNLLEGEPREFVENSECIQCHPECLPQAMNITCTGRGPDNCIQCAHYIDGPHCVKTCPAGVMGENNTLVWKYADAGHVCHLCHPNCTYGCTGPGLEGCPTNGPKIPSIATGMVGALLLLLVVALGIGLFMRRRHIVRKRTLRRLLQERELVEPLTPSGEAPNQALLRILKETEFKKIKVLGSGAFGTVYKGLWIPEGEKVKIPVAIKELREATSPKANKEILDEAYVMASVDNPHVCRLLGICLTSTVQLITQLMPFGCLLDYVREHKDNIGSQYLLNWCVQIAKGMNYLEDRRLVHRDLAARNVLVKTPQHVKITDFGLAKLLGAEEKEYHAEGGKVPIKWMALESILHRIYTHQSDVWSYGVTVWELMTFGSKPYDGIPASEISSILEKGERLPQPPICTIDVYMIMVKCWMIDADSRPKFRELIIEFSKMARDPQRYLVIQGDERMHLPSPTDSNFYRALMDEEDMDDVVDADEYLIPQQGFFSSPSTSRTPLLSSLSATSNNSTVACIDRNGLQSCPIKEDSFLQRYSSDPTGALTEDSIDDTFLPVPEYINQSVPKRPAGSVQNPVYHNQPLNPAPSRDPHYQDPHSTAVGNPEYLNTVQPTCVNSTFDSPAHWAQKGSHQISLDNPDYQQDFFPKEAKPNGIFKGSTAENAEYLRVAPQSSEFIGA
*A* 0.65

*Q* Kindly state the measured IC50 obtained for COc1cc2ncnc(Nc3ccc(F)c(Cl)c3)c2cc1NC(=O)/C=C/CN1CC2CC2C1 (centres unmarked) with UniProt P00533.
*A* 0.55
